Particulars: in acetone, 303.95 K
Measure name: solubility (mole fraction)

query: Recorded solubility (mole fraction) for `CC[C@H](C)C(=O)O[C@H]1C[C@@H](C)C=C2C=C[C@H](C)[C@H](CC[C@@H]3C[C@@H](O)CC(=O)O3)[C@H]21` , please?
result: 0.0157

---

Particulars: in acetone, 298.75 K
Measure name: solubility (mole fraction)
Give the figure by itself; no unit, no explanation.

query: What solubility (mole fraction) value was documented for this compound, `CC[C@H](C)C(=O)O[C@H]1C[C@@H](C)C=C2C=C[C@H](C)[C@H](CC[C@@H]3C[C@@H](O)CC(=O)O3)[C@H]21` ?
result: 0.0123

---

Particulars: in acetone, 308.25 K
Measure name: solubility (mole fraction)
Please respond with just the number, no unit label.

query: Name the recorded solubility (mole fraction) for `CC[C@H](C)C(=O)O[C@H]1C[C@@H](C)C=C2C=C[C@H](C)[C@H](CC[C@@H]3C[C@@H](O)CC(=O)O3)[C@H]21` .
result: 0.0183
